Recorded pEC50 values for a group of compounds are listed next.
- Tested on: J774
- MEASUREMENT PROTOCOL: Cytotoxicity against mouse J774 cells after 72 hrs by CellTiter 96 assay
- Assay type: cell-based
- CONDITION DESCRIPTION: J774, 72 h
pEC50: −log10 of the molar value.
MEASURE NAME: pEC50

• COc1cc2[nH]c(C)c(-c3ccccc3)c(=O)c2cc1Cl = < 4.48
• CCc1ccccc1-c1c(C)[nH]c2cc(OC)c(Cl)cc2c1=O = 4.79
• COc1cc2[nH]c(C)c(-c3ccccc3OC(F)(F)F)c(=O)c2cc1Cl = < 4.52
• COc1cc2[nH]c(C)c(-c3ccc(OCc4ccc(F)cc4)cc3)c(=O)c2cc1Cl = < 4.63

* * *

- MEASUREMENT PROTOCOL: Aqueous solubility of the compound at pH 7.4
- Type: physicochemical
- CONDITION DESCRIPTION: buffer
Recorded solubility kinetic values for a group of compounds are listed next.
MEASURE NAME: solubility kinetic

* COc1cc2[nH]c(C)c(-c3ccc(C(F)(F)F)cc3C)c(=O)c2cc1Cl | < 2 µM
* COc1cc2[nH]c(C)c(-c3ccc(Oc4ccc(OC(F)(F)F)cc4)cc3F)c(=O)c2cc1Cl | < 2 µM
* COc1cc2[nH]c(C)c(-c3ccc(-c4ccc(OC(F)(F)F)cc4)nc3)c(=O)c2cc1Cl | 6 to 12 µM
* COc1cc2[nH]c(C)c(-c3ccc(-c4ccc(C(F)(F)F)cc4F)nc3)c(=O)c2cc1Cl | 6 to 12 µM
* COc1cc2[nH]c(C)c(-c3ccc(F)cc3C)c(=O)c2cc1Cl | < 2 µM
* COc1cc2[nH]c(C)c(-c3ccc(Oc4ccc(OC(F)(F)F)cc4)cc3C)c(=O)c2cc1Cl | < 2 µM
* CCCSc1ccc2nc(NC(=O)OC)[nH]c2c1 [ALBENDAZOLE] | 6.1 µM
* COc1cc2[nH]c(C)c(-c3ccc(Cl)cc3C)c(=O)c2cc1Cl | < 2 µM
* COc1cc2[nH]c(C)c(-c3ccc(OCc4ccccc4)c(F)c3)c(=O)c2cc1Cl | < 2 µM

* * *

- Tested on: Plasmodium berghei
- MEASUREMENT PROTOCOL: animal or person
- CONDITION DESCRIPTION: ANKA, in Mus musculus, read-out: INH
Recorded inhibition in vivo at 50 mg/kg values for a group of compounds are listed next.
MEASURE NAME: inhibition in vivo at 50 mg/kg (%)

* COc1cc2[nH]c(C)c(-c3ccc(OC(F)(F)F)cc3)c(=O)c2cc1Cl | 28.8
* COc1ccc(-c2c(C)[nH]c3cc(OC)c(Cl)cc3c2=O)cc1 | 26.9
* COc1cc2[nH]c(C)c(-c3ccc(Oc4ccccc4)cc3)c(=O)c2cc1Cl | 69
* COc1cc2[nH]c(C)c(-c3ccc(-c4ccccc4)cc3)c(=O)c2cc1Cl | 61
* COc1cc2[nH]c(C)c(-c3ccc(F)cc3F)c(=O)c2cc1Cl | 29.1
* C[C@H]1[C@H](OC(=O)CCC(=O)O)O[C@@H]2O[C@@]3(C)CC[C@H]4[C@H](C)CC[C@@H]1[C@@]24OO3 [ARTESUNATE] | 81
* COc1cc2[nH]c(C)c(-c3ccc(N4CCN(C)CC4)nc3)c(=O)c2cc1Cl | 0
* COc1cc2[nH]c(C)c(-c3ccc(OC(C)C)cc3)c(=O)c2cc1Cl | 26.8

* * *

- Test system: Plasmodium berghei
- MEASUREMENT PROTOCOL: Antimalarial activity against Plasmodium berghei ANKA expressing GFP infected in Balb/c mouse assessed as inhibition of parasitemia at 10 mg/kg, po qd administered as single dose on day 3 to 5 of exposure measured on day 6 post exposure by in vivo thomson test relative to control
- Type: functional
MEASURE NAME: inhibition in vivo at 10 mg/kg (%)

* COc1cc2[nH]c(C)c(-c3ccc(C(F)(F)F)cc3C)c(=O)c2cc1Cl | 80
* COc1cc2[nH]c(C)c(-c3ccc(-c4ccc(C(F)(F)F)cc4F)nc3)c(=O)c2cc1Cl | 95.2
* COc1cc2[nH]c(C)c(-c3ccc(Oc4ccccc4)cc3)c(=O)c2cc1Cl | 87
* COc1cc2[nH]c(C)c(-c3ccc(-c4ccc(OC(F)(F)F)cc4)nc3)c(=O)c2cc1Cl | 97.3
* COc1cc2[nH]c(C)c(-c3ccc(C(F)(F)F)cc3)c(=O)c2cc1Cl | 92
* COc1cc2[nH]c(C)c(-c3ccc(-c4ccccc4)cc3)c(=O)c2cc1Cl | 80
* COc1cc2[nH]c(C)c(-c3ccc(F)cc3)c(=O)c2cc1Cl | 63

* * *

- System: J774
- MEASUREMENT PROTOCOL: Cytotoxicity against mouse J774 cells after 72 hrs by CellTiter 96 assay
- Format: cell-based
- CONDITION DESCRIPTION: J774, 72 h
MEASURE NAME: EC50

- COc1cc2[nH]c(C)c(-c3ccc4nonc4c3)c(=O)c2cc1Cl: > 29.3 µM
- COc1cc2[nH]c(C)c(-c3ccc(OC)c(F)c3F)c(=O)c2cc1Cl: > 27.3 µM
- COc1cc2[nH]c(C)c(-c3ccncc3)c(=O)c2cc1Cl: > 33.3 µM
- COc1cc2[nH]c(C)c(-c3ccccn3)c(=O)c2cc1Cl: > 33.3 µM
- COc1cc2[nH]c(C)c(-c3ccc(C(C)(C)C)cc3)c(=O)c2cc1Cl: > 28.1 µM
- COc1cc2[nH]c(C)c(-c3cccc(CO)c3)c(=O)c2cc1Cl: > 30.3 µM
- COc1cc2[nH]c(C)c(-c3ccc(O)cc3)c(=O)c2cc1Cl: > 31.7 µM
- COc1cc2[nH]c(C)c(-c3ccc(COc4ccc(OC(F)(F)F)cc4)cc3)c(=O)c2cc1Cl: > 20.4 µM
- COc1cc2[nH]c(C)c(-c3ccc(Oc4ccccc4)cc3)c(=O)c2cc1Cl: > 25.5 µM
- COc1cc2[nH]c(C)c(-c3ccc(Cl)cc3C)c(=O)c2cc1Cl: > 28.7 µM
- COc1cc2[nH]c(C)c(-c3ccc(C(F)(F)F)cc3F)c(=O)c2cc1Cl: > 25.9 µM
- COc1cc2[nH]c(C)c(-c3ccc(-c4ccc(OC(F)(F)F)cc4)nc3)c(=O)c2cc1Cl: > 21.7 µM
- COc1cc2[nH]c(C)c(-c3ccc(OC(C)C)cc3)c(=O)c2cc1Cl: > 27.9 µM
- COc1cc2[nH]c(C)c(-c3ccc(N4CCN(C)CC4)nc3)c(=O)c2cc1Cl: > 25.1 µM
- COc1cc2[nH]c(C)c(-c3ccc(C(F)(F)F)cc3C)c(=O)c2cc1Cl: > 26.2 µM
- COc1cc2[nH]c(C)c(-c3ccc(C(C)=O)cc3)c(=O)c2cc1Cl: > 29.3 µM
- COc1cc2[nH]c(C)c(-c3ccc(OCc4ccccc4)cc3)c(=O)c2cc1Cl: > 24.6 µM
- COc1cc2[nH]c(C)c(-c3c(C)noc3C)c(=O)c2cc1Cl: > 31.4 µM
- COc1cc2[nH]c(C)c(-c3ccc(Oc4ccc(OC(F)(F)F)cc4)cc3F)c(=O)c2cc1Cl: > 20.2 µM
- COc1cc2[nH]c(C)c(-c3ccc(C(C)C)cc3)c(=O)c2cc1Cl: > 29.3 µM
- COc1cc2[nH]c(C)c(-c3cncnc3)c(=O)c2cc1Cl: > 33.1 µM
- COc1cc2[nH]c(C)c(-c3ccc(C)cc3C)c(=O)c2cc1Cl: 3.74 µM
- COc1ccc(-c2c(C)[nH]c3cc(OC)c(Cl)cc3c2=O)cc1: > 30.3 µM
- COc1cc2[nH]c(C)c(-c3ccccc3C)c(=O)c2cc1Cl: > 31.9 µM
- COc1cc2[nH]c(C)c(-c3ccc(C=O)cc3)c(=O)c2cc1Cl: > 30.5 µM
- COc1cc2[nH]c(C)c(-c3ccc(S(=O)(=O)N(C)C)cc3)c(=O)c2cc1Cl: > 24.6 µM
- COc1cc2[nH]c(C)c(-c3ccc(N(C)C)nc3)c(=O)c2cc1Cl: > 29.1 µM
- COc1cc2[nH]c(C)c(-c3ccc(Oc4ccc(OC(F)(F)F)cc4)cc3C)c(=O)c2cc1Cl: > 20.4 µM
- COc1cc2[nH]c(C)c(-c3ccc(C)cc3)c(=O)c2cc1Cl: > 31.9 µM
- COc1cc2[nH]c(C)c(-c3ccccc3CO)c(=O)c2cc1Cl: > 30.3 µM

* * *

- MEASUREMENT PROTOCOL: Cytotoxicity index, ratio of EC50 for mouse J774 cells to EC50 for multi-drug-resistant Plasmodium falciparum TM90-C2B infected in human type A+ erythrocytes
- Format: toxicity, cell-based
- CONDITION DESCRIPTION: read-out: Ratio EC50
MEASURE NAME: selectivity ratio

- COc1cc2[nH]c(C)c(-c3ccc(C)cc3C)c(=O)c2cc1Cl: 1180
- COc1cc2[nH]c(C)c(-c3ccc(COc4ccc(OC(F)(F)F)cc4)cc3)c(=O)c2cc1Cl: > 12800
- COc1cc2[nH]c(C)c(-c3ccc4nonc4c3)c(=O)c2cc1Cl: > 363
- COc1cc2[nH]c(C)c(-c3ccc(-c4ccc(C(F)(F)F)cc4F)nc3)c(=O)c2cc1Cl: > 20400
- COc1cc2[nH]c(C)c(-c3ccccc3OC(F)(F)F)c(=O)c2cc1Cl: > 15.8
- COc1cc2[nH]c(C)c(-c3ccc(CO)cc3)c(=O)c2cc1Cl: > 323
- COc1cc2[nH]c(C)c(-c3ccccc3CO)c(=O)c2cc1Cl: > 109
- COc1cc2[nH]c(C)c(-c3ccccc3)c(=O)c2cc1Cl: > 2170
- COc1cc2[nH]c(C)c(-c3ccccc3C)c(=O)c2cc1Cl: > 7910
- COc1cc2[nH]c(C)c(-c3ccc4c(c3)OCCO4)c(=O)c2cc1Cl: > 304
- COc1cc2[nH]c(C)c(-c3c(C)noc3C)c(=O)c2cc1Cl: > 49.9
- COc1cc2[nH]c(C)c(-c3ccc(-c4ccccc4)cc3)c(=O)c2cc1Cl: > 6140
- COc1cc2[nH]c(C)c(-c3ccc(C(C)=O)cc3)c(=O)c2cc1Cl: > 605
- COc1cc2[nH]c(C)c(-c3cc4ccccc4o3)c(=O)c2cc1Cl: > 214
- COc1cc2[nH]c(C)c(-c3ccc(-c4ccc(OC(F)(F)F)cc4)nc3)c(=O)c2cc1Cl: > 10700
- COc1ccc(-c2c(C)[nH]c3cc(OC)c(Cl)cc3c2=O)cc1: > 2690
